Experiment: Kinetic solubility of compound at pH 7.4 by nephelometry
Format: physicochemical
Settings: buffer
molecules and their reported solubility kinetic

COc1ccc(-c2ccc(CCn3ncc4c3nc(N)n3nc(-c5ccco5)nc43)cc2)cn1; < 5 µM
Nc1nc2c(cnn2CCc2ccc(-c3ccc(OC(F)(F)F)cc3)cc2)c2nc(-c3ccco3)nn12; < 5 µM
COc1ccc(-c2ccc(CCn3ncc4c3nc(N)n3nc(-c5ccco5)nc43)cc2)cc1; < 5 µM
Cc1ccc(-c2ccc(CCn3ncc4c3nc(N)n3nc(-c5ccco5)nc43)cc2)cn1; < 5 µM

Data request: Param item = Cc1ccc2cc(CCn3ncc4c3nc(N)n3nc(-c5ccco5)nc43)ccc2n1 ; retrieve measured solubility kinetic.
Data returned: 6 µM

* * *

Molecular target: Adenosine receptor A2a (Homo sapiens)
Sequence (P29274 whole entry): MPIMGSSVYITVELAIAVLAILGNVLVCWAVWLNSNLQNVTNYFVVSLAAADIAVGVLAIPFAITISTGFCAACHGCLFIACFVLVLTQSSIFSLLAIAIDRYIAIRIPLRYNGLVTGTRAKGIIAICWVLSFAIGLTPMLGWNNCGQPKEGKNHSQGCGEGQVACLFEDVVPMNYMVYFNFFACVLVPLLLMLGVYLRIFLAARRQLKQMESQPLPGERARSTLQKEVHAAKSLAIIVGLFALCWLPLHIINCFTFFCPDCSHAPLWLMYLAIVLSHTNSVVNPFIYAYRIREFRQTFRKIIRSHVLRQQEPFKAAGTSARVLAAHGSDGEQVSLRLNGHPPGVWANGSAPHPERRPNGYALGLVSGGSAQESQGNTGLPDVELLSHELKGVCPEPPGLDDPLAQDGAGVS
value_type: pKi
API: returns pKi as number; meaning -log10 of concentration in mol/L.

COc1ccc(-c2ccc(CCn3ncc4c3nc(N)n3nc(-c5ccco5)nc43)cc2)cc1; 9.30
COc1ccc(-c2ccc(CCn3ncc4c3nc(N)n3nc(-c5ccco5)nc43)cc2)cn1; 8.72
Nc1nc2c(cnn2CCc2cccc(-c3cccnc3)c2)c2nc(-c3ccco3)nn12; 8.26
Nc1nc2c(cnn2CCc2ccc(-c3cccnc3)cn2)c2nc(-c3ccco3)nn12; 7.94
Nc1nc2c(cnn2CCc2ccc(-c3cnccn3)cc2)c2nc(-c3ccco3)nn12; 9.05
Cc1ccc2cc(CCn3ncc4c3nc(N)n3nc(-c5ccco5)nc43)ccc2n1; 8.62

Data request: # returns recorded pKi (system: Adenosine receptor A2a (Homo sapiens)) for CC(c1ccc2cc(CCn3ncc4c3nc(N)n3nc(-c5ccco5)nc43)ccc2n1)N1CCOCC1 (stereo not drawn)
Data returned: 8.89

Data request: Also Nc1nc2c(cnn2CCc2ccc3nc(C(=O)N4CCOCC4)ccc3c2)c2nc(-c3ccco3)nn12 ?
Data returned: 8.80

* * *

Assay: AUC (0 to 6 hrs) in rat at 3 mg/kg, po
Assay type: ADME, organism-based
Design: time < 6 hr, dose 3 mg/kg, route oral
Conditions: plasma
Label 0 if AUC(0-t) at 6 h falls below 700 ng·h/mL; label 1 in every other case.

Data request: Determine whether this molecule has AUC(0-t) at 6 h no lower than 700 ng·h/mL: Cc1ccc2cc(CCn3ncc4c3nc(N)n3nc(-c5ccco5)nc43)ccc2n1
Data returned: 1

Data request: Also Nc1nc2c(cnn2CCc2ccc3nc(CN4CCOCC4)ccc3c2)c2nc(-c3ccco3)nn12 ?
Data returned: 0

Data request: Also CCc1ccc2cc(CCn3ncc4c3nc(N)n3nc(-c5ccco5)nc43)ccc2n1 ?
Data returned: 0

Data request: Also Nc1nc2c(cnn2CCc2ccc3nc(N4CCOCC4)ccc3c2)c2nc(-c3ccco3)nn12 ?
Data returned: 0

Data request: Also Cc1ccc(-c2ccc(CCn3ncc4c3nc(N)n3nc(-c5ccco5)nc43)cc2)cn1 ?
Data returned: 0

* * *

// values below are pKi; system is Adenosine receptor A2a (Homo sapiens)
API: returns pKi as number; meaning -log10 of concentration in mol/L.

Some solved cases for reference:
Nc1nc2c(cnn2CCc2ccc3nc(N4CCOCC4)ccc3c2)c2nc(-c3ccco3)nn12; 8.74
COCCOC(C)c1ccc2cc(CCn3ncc4c3nc(N)n3nc(-c5ccco5)nc43)ccc2n1 (stereo not given); 8.82

Data request: Param item = Nc1nc2c(cnn2CCc2ccc(-c3ccc(OC(F)(F)F)cc3)cc2)c2nc(-c3ccco3)nn12 ; retrieve measured pKi.
Data returned: 8.11

Data request: Also Cc1ccc(-c2ccc(CCn3ncc4c3nc(N)n3nc(-c5ccco5)nc43)cc2)cn1 ?
Data returned: 9.22

Data request: Also Nc1nc2c(cnn2CCc2ccc(-c3ccccc3)cc2)c2nc(-c3ccco3)nn12 ?
Data returned: 8.96
